- experimental.protocol: Octanol-water partition coefficient, log P of the compound
- Format: physicochemical
Would you please tag the item fulfilled when its logP is -0.8 or above, and not fulfilled when it is below?

These solved cases illustrate the format of a correct answer.
compound=[O-][n+]1ccccc1/C=N/NP(=S)(N/N=C/c1cccc[n+]1[O-])Oc1ccccc1 label_value=fulfilled
compound=S=P(N/N=C/c1ccccn1)(N/N=C/c1ccccn1)Oc1ccccc1 label_value=fulfilled
compound="O=P1(N(CCCl)CCCl)NCCCO1 (stereo not given) [CYCLOPHOSPHAMIDE ANHYDROUS]" label_value=fulfilled

Textbook exercise: given the entry `O.O=P(O)(N/N=C/c1cccc[n+]1[O-])Oc1ccccc1` , state whether its logP is greater than or equal to -0.8.
fulfilled

Check this compound for logP at or above -0.8: `[O-][n+]1ccccc1`
not fulfilled

---

- Tested on: Ehrlich
- experimental.protocol: Antitumor activity against mouse Ehrlich ascites carcinoma cells allografted in mouse assessed as host survival time at 40 mg/kg administered qd for 6 days beginning 24 hrs after tumor implantation relative to control in presence of 8 mg/kg CuCl2
- Type: functional
Parameter T/C: see the listing below.
Please state the figure in %; there is no need to write the unit.

Answered examples (3):
smiles_input=CCOP(=S)(N/N=C/c1cccc[n+]1[O-])OCC observed_result=135
smiles_input=O.O=P(O)(N/N=C/c1ccccn1)Oc1ccccc1 observed_result=163
smiles_input=O.O=P(O)(N/N=C/c1cccc[n+]1[O-])Oc1ccccc1 observed_result=164

Entry `CCOP(=O)(N/N=C/c1cccc[n+]1[O-])OCC` , T/C reported as 98

Summary for this compound, `[O-][n+]1ccccc1/C=N/NP(=S)(Oc1ccccc1)Oc1ccccc1` : T/C is 204

Sure, the documented T/C for `S=P(N/N=C/c1ccccn1)(N/N=C/c1ccccn1)Oc1ccccc1` is 269

The recorded T/C for entry `[O-][n+]1ccccc1/C=N/NP(=S)(N/N=C/c1cccc[n+]1[O-])Oc1ccccc1` equals 166

---

- System: Sarcoma-180
- experimental.protocol: Antitumor activity against mouse Sarcoma 180 cells allografted in mouse assessed as host survival time at 40 mg/kg administered qd for 6 days beginning 24 hrs after tumor implantation relative to control in presence of 8 mg/kg CuCl2
- Format: functional
The entries below are paired with their reported T/C.
Answer in %, number only, no unit symbol.

Check out these entries, answers already filled in.
smiles_input=O.O=P(O)(N/N=C/c1cccc[n+]1[O-])Oc1ccccc1 experimental_target=Sarcoma-180 parameter_measured=T/C observed_result=87
smiles_input=CCOP(=S)(N/N=C/c1cccc[n+]1[O-])OCC experimental_target=Sarcoma-180 parameter_measured=T/C observed_result=126
smiles_input=[O-][n+]1ccccc1/C=N/NP(=S)(Oc1ccccc1)Oc1ccccc1 experimental_target=Sarcoma-180 parameter_measured=T/C observed_result=106
smiles_input=[O-][n+]1ccccc1/C=N/NP(=S)(N/N=C/c1cccc[n+]1[O-])Oc1ccccc1 experimental_target=Sarcoma-180 parameter_measured=T/C observed_result=85
smiles_input=O.O=P(O)(N/N=C/c1ccccn1)Oc1ccccc1 experimental_target=Sarcoma-180 parameter_measured=T/C observed_result=79

# context switch: different compound, same T/C
Entry `S=P(N/N=C/c1ccccn1)(N/N=C/c1ccccn1)Oc1ccccc1` — recorded T/C = 141

---

Measured T/C accompanies every entry in the list below.
- Tested on: Ehrlich
- experimental.protocol: Antitumor activity against mouse Ehrlich ascites carcinoma cells allografted in mouse assessed as host survival time at 100 mg/kg administered qd for 6 days beginning 24 hrs after tumor implantation relative to control
- Type: functional
Write the number in % without appending the unit.

Worked set:
smiles_input=[O-][n+]1ccccc1/C=N/NP(=S)(N/N=C/c1cccc[n+]1[O-])c1ccccc1 observed_result=104
smiles_input=O.O=P(O)(N/N=C/c1ccccn1)Oc1ccccc1 observed_result=115
smiles_input=[O-][n+]1ccccc1/C=N/NP(=S)(Oc1ccccc1)Oc1ccccc1 observed_result=144
smiles_input=CCOP(=O)(N/N=C/c1cccc[n+]1[O-])OCC observed_result=160
smiles_input=S=P(N/N=C/c1ccccn1)(N/N=C/c1ccccn1)c1ccccc1 observed_result=190

Per the record, `[O-][n+]1ccccc1/C=N/NP(=S)(N/N=C/c1cccc[n+]1[O-])Oc1ccccc1` has T/C of 123

Looking up `CCOP(=S)(N/N=C/c1cccc[n+]1[O-])OCC` , I see its T/C listed as 108

Entry under test: `O.O=P(O)(N/N=C/c1cccc[n+]1[O-])Oc1ccccc1` . Its T/C was 118

So, `S=P(N/N=C/c1ccccn1)(N/N=C/c1ccccn1)Oc1ccccc1` ? Its T/C was 114

---

- experimental.protocol: Metal chelating activity of the compound assessed as Co2+-complex formation by absorbance analysis
- Assay type: physicochemical
parameter.measured: Activity

Some compounds with recorded Activity:
smiles_input=[O-][n+]1ccccc1/C=N/NP(=S)(N/N=C/c1cccc[n+]1[O-])Oc1ccccc1 observed_result="Not Active"
smiles_input=[O-][n+]1ccccc1/C=N/NP(=S)(Oc1ccccc1)Oc1ccccc1 observed_result="Not Active"
smiles_input=O.O=P(O)(N/N=C/c1ccccn1)Oc1ccccc1 observed_result=Active
smiles_input=O.O=P(O)(N/N=C/c1cccc[n+]1[O-])Oc1ccccc1 observed_result=Active
smiles_input=CCOP(=O)(N/N=C/c1cccc[n+]1[O-])OCC observed_result="Not Active"

Recorded Activity (compound `[O-][n+]1ccccc1/C=N/NP(=S)(N/N=C/c1cccc[n+]1[O-])c1ccccc1` ): Not Active

Value of Activity reported for the compound `CCOP(=S)(N/N=C/c1cccc[n+]1[O-])OCC` is Not Active
